Molecular target: Streptokinase A (Streptococcus pyogenes serotype M1, UniProt P10520)
Sequence (P10520 whole entry): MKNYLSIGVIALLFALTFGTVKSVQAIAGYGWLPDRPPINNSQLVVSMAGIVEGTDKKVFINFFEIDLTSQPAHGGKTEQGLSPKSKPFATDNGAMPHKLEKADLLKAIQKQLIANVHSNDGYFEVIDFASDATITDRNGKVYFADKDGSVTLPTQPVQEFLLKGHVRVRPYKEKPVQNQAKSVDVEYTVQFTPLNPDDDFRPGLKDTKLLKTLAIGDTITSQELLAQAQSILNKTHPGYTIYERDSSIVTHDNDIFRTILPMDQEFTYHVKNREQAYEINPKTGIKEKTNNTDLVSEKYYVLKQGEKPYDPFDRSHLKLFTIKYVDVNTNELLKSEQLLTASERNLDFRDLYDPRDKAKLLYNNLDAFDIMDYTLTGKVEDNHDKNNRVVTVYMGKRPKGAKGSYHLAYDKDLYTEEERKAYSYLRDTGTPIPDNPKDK
Test: viability-normalized secreted streptokinase activity reduction – plasminogen activation absorbance, OD405, dose response (AID 1914);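 also: secreted streptokinase activity via plasminogen activation per viability signal from cell pellet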
Format: functional, Streptococcus pyogenes M1 GAS
Activity calls are given as the source filed them. Rule as the data show it: actives have a measured EC50 and inactives only a lower limit.
Attribute Measured: EC50

                                    compound                           subject_of_test  attribute_measured     experimental_result
 0  Cn1c(C(=O)N2CCN(c3ccc([N+](=O)[O-])cc3)CC2)cc2c(O)nc3ccccc3c21  Streptokinase A (Streptococcus pyogenes serotype M1, UniProt P10520)                EC50   > 150 µM (not active)
 1  O=S(=O)(Nc1ccc(-n2cccc2)cc1)c1ccc(Cl)c(Cl)c1  Streptokinase A (Streptococcus pyogenes serotype M1, UniProt P10520)                EC50  11.3 µM (inconclusive)
 2     Cc1nn(-c2ccccc2)c2sc(-c3nnc(S)o3)cc12  Streptokinase A (Streptococcus pyogenes serotype M1, UniProt P10520)                EC50   > 150 µM (not active)
 3  CCN(CCn1cccn1)C(=O)CC1C(=O)NCCN1CCc1ccccc1 (stereo unspecified)  Streptokinase A (Streptococcus pyogenes serotype M1, UniProt P10520)                EC50   > 150 µM (not active)
 4    O=c1c([N+](=O)[O-])cccn1Cc1ccc(F)cc1Cl  Streptokinase A (Streptococcus pyogenes serotype M1, UniProt P10520)                EC50   > 150 µM (not active)
 5  CCOC(=O)c1c(NC(=O)c2cccs2)sc(CC)c1-c1cccs1  Streptokinase A (Streptococcus pyogenes serotype M1, UniProt P10520)                EC50        9.89 µM (active)
 6           Cc1ccc(N/N=C(\C#N)C(=N)S)c(C)c1  Streptokinase A (Streptococcus pyogenes serotype M1, UniProt P10520)                EC50   > 150 µM (not active)
 7  O=C(Nc1ccc(Br)cc1C(=O)O)c1ccc2c(c1)C(=O)N(Cc1ccccc1)C2=O  Streptokinase A (Streptococcus pyogenes serotype M1, UniProt P10520)                EC50  17.5 µM (inconclusive)
 8  Cc1nn(-c2ccccc2)c(C)c1/C=N/NC(=O)c1cc(-c2ccc(Br)s2)[nH]n1  Streptokinase A (Streptococcus pyogenes serotype M1, UniProt P10520)                EC50   > 150 µM (not active)
 9  O=C(CSc1nnc(CNC(=O)c2ccc(F)cc2)o1)NCc1ccccc1Cl  Streptokinase A (Streptococcus pyogenes serotype M1, UniProt P10520)                EC50   > 150 µM (not active)
10  Cc1nc(NS(=O)(=O)c2ccc(Cl)s2)c2c3c(sc2n1)CCCC3  Streptokinase A (Streptococcus pyogenes serotype M1, UniProt P10520)                EC50  21.5 µM (inconclusive)
